All values here come from patent US8431589B2.

# ASSAYED_SYSTEM: recombinant hexahistidine-tagged human FAK kinase domain (Homo sapiens, UniProt Q05397)
# Construct: the kinase domain of FAK (Met384-Gly706) from position 29 to 351; Sf9 and ExpresSF+ insect cells
# Sequence (Q05397 384-706): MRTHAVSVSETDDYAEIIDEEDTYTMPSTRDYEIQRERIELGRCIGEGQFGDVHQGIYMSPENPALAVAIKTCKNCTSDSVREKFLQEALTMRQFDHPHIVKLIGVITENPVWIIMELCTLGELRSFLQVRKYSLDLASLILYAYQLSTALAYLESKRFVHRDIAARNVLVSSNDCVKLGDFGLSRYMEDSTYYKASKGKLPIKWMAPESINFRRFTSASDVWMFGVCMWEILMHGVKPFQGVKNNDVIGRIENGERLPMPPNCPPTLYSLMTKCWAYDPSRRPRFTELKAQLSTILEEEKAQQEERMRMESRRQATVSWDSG
# ASSAY_PROCEDURE: FAK assay (FRET, Biot-Y397 substrate)
pIC50: −log10 of the molar value.
QUANTITY_NAME: pIC50

a: CNS(=O)(=O)c1ccccc1Nc1nc(Nc2cc(OC)c(OC)c(OC)c2)ncc1C(F)(F)F
b: CNS(=O)(=O)c1ccccc1Nc1nc(Nc2cccc(C)c2)ncc1Br
QUERY: Hey, between a and b which has a smaller measured pIC50? Bench note: the answer is the label of the chosen record.
RESULT: b
